- measurementNotes: NCI Yeast Anticancer Drug Screen. Data for the cln2 rad14 strain (AID 165);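 also: 0% = growth equal to vehicle treated cultures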
- studyConditions: S. cerevisiae cln2 rad14 strain, at 50.0 µM (retest, dose inferred, filed as 5.0), hits give high values
- Experimental: Growth inhibition of yeast strains with defined genetic alterations is measured as a screen for potential anti-cancer activity. Selected strains with alterations in DNA damage repair or cell cycle control were exposed to compounds and growth inhibition was measured relative to vehicle treated controls. The strain used in this assay is cln2 rad14
This is part of a sample that, as a whole, favours compounds with a hit. Of some 79,000 tested, about 15% had one in any assay.
endpointName: growth inhibition (%)
Report the figure in % without appending any unit label.

The value of growth inhibition measured for the compound O=C(Cc1c[nH]c2ccccc12)N/N=C/c1ccc(Cl)cc1[N+](=O)[O-] turned out to be 89

// growth inhibition lookup, compound = C/C(=N/O)c1ccc2c(c1)C(=NO)c1cc(/C(C)=N/O)ccc1-2 , result: 99

Looking up O=C1CC(c2ccccc2Cl)C(c2ccccc2Cl)C1 (stereo not given) , I found its growth inhibition recorded as 97

Looking up CCOC(=O)/C=C1/C(=O)OC2C1OC1OC(C)(C)OC12 (stereo not given) , I see its growth inhibition listed as 100

Lab note: Nc1ccc(C(=O)NN2C(=O)C(Cl)C2c2cc(Br)cc(Br)c2O)cc1 (stereo not given) gave growth inhibition of 76

The compound OC(OC/C(I)=C(/I)COC(O)C(Cl)(Cl)Cl)C(Cl)(Cl)Cl (stereo not given) showed growth inhibition equal to 70
